- TESTED_ON: Ku70 full length;Ku80 full length (human?;human?, UniProt P12956;P13010 1-609;1-732, |)
- Sequence (P12956 whole entry, chain 1 of 2): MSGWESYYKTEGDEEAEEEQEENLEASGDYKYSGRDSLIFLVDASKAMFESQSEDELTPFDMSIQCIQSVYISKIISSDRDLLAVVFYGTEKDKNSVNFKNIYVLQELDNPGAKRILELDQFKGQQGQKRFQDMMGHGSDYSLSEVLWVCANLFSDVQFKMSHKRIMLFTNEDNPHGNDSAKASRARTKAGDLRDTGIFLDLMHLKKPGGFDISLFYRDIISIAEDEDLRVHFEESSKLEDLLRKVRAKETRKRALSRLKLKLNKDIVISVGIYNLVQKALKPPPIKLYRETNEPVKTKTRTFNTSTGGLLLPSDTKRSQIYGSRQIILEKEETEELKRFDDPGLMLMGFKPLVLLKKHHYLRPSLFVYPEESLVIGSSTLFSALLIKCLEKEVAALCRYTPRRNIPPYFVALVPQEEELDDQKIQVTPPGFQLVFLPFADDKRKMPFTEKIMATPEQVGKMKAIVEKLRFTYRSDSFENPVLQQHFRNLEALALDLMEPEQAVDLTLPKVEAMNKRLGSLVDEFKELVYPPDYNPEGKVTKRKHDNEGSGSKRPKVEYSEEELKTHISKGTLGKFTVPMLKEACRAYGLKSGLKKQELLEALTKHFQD
- Sequence (P13010 whole entry, chain 2 of 2): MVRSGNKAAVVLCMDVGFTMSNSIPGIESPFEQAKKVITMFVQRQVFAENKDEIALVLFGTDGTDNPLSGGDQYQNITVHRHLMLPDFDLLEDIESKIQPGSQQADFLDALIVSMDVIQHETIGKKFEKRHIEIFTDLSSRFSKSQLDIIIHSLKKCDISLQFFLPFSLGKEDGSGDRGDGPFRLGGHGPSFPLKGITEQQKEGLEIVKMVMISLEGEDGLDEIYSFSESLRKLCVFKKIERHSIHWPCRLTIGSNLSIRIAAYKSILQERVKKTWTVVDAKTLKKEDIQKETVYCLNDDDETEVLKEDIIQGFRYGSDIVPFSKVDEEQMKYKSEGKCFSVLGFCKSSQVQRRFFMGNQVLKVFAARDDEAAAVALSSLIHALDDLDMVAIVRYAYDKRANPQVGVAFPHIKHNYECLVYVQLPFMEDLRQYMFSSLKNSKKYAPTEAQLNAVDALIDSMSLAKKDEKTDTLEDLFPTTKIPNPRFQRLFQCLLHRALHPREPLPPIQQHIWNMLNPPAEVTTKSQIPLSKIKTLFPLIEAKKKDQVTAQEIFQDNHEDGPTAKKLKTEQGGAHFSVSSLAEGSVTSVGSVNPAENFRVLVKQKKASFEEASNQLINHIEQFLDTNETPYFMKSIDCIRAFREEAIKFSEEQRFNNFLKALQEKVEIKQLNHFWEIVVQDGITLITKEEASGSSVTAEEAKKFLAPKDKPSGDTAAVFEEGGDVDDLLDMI
- PROCEDURE_SUMMARY: ITC
READOUT_LABEL: Kd (nM)

[[record]]
binder = "DNA 18bp (CN3/CN4) (dsDNA) DNA 1: GTTATCCGAGCGTGAGAC DNA 2: GTCTCACGCTCGGATAAC"
readout_label = "Kd"
unit_label = "nM"
measured = 4.1

